Target: T1, human LILRB1 recombinant protein (human, UniProt Q8NHL6 24-461)
T1 construct: The ELISA method says only 'LILRB1 recombinant proteins' coated on plates; also called leukocyte immunoglobulin-like receptor subfamily B member 1
T1 sequence (Q8NHL6 24-461 limits assumed): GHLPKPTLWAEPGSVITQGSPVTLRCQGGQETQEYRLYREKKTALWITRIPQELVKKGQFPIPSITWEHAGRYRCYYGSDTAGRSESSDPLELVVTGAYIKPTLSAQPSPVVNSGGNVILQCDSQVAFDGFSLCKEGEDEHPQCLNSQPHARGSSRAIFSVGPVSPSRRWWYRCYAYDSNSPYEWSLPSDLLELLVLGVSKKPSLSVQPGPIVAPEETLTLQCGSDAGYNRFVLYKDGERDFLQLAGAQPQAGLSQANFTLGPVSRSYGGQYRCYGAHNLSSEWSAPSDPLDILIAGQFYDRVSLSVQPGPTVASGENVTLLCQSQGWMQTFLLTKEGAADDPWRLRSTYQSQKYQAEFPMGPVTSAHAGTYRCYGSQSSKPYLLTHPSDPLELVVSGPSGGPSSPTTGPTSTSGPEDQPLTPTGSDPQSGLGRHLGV
Assay: ELISA, B cell supernatant
Listing of entries alongside the reported OD450.
recorded.metric: OD450 (OD450)

binder: mAb of B cell clone 83 (supernatant) (antibody, V domains shown, rabbit; also called B1-#83) VH: EQSLKESGGDLVKPGASLTLTCTASAFSFSSSSWICWVRQAPGKGLEWIACIYGGSVATTYYATWAKGRFTISKPSSTTVTLQMTSLPAADTATYFCATNTDSSRSYYNLWGPGTLVTVSS VL: ELDLTQTPSSVEVAVGGAVTIKCQASHIITNYLAWYQQRPGQPPKLLIYDASKLASGVPSRFKGSGSGTEFTLTISDLECADAATYYCQNYLYFSSGDWNVFGGGTEVVVK
recorded.value: 2.32
--
binder: mAb of B cell clone 202 (supernatant) (antibody, V domains shown, rabbit) VH: SQSLEESGGGLVKPGASLTLTCKGSGFSFNGDYYMCWVRQTPGKGLEWIGCIYAAGDDTYYATWAKGRFTISKTSSTTVTLQMTSLTAADTATYFCARDQADSYAFGLWGPGTLVTISS VL: ELVLTQTASPVSGAVGGTVTIKCQASQNIYSNLAWYQQKPGQPPKLLIYSASKLASGVPSRFKGSGSGTEYTLTISGVQCEDAATYYCQSYYYTASADTTFGGGTEVEIK
recorded.value: 1.95
--
binder: mAb of B cell clone 170 (supernatant) (antibody, V domains shown, rabbit; also called B1-#170) VH: QSVEESGGGLVKPGASLTLSCTASGFDFSSKYYMWWVRQAPGKGLEWIARIYGGSSDSTDYATWARGRFAISRTSSTTVTLRMTSLTAADTATYFCGRVIDGACGYDLWGPGTLVTVSS VL: ELDLTQTPASVSAAVGGTVTISCQSSQSVHHSQTVHNNQWLAWYQQKPGQPPKLLIYDASKLASGVPSRFTGSGSGTQFSLTISAVQCDDAATYYCQGGYSYGDVYGFGGGTELEIK
recorded.value: 2.26
--
binder: mAb of B cell clone 117 (supernatant) (antibody, V domains shown, rabbit) VH: EQSLEESGGDLVKPEGSLTLTCTASGFSFSSSYYMCWIRQPPGRGLEWLACIYTGSDSTYYAPWAKGRFTISRTSSTTVTLQMTSLTAADTATYFCAGDWDYADAAGYYVARGFNLWGPGTLVTISS VL: ELDLTQTPASVSAAVGGTVTIKCQASEDIYSNLAWYQQKPGQPPKLLIYKASTLASGVPPRFKGSGSGTEYTLTISGVQCDDAATYACQTTYWTTTDDNPFGGGTEVEIK
recorded.value: 2.23
